The reported numbers originate from PubChem BioAssay (Tox21).

# TEST METHOD NOTES: qHTS assay to identify small molecule antagonists of the estrogen related receptor (ERR) signaling pathway from Tox21 library - cell viability counter screen (AID 1224834); also: % is scaled to controls: 0 for no effect and ±100 for the full control effect; nearly all actives have a fitted effect of over 30% in size
# MEASUREMENT CONTEXT: ERR reporter cells viability, CellTiter-Fluor, 17.5 h; series mostly up to 92.4 µM
Records with an inconclusive call do not appear. Active and inactive are the calls of the source. Calls follow the shape of the dose curve; as a rule, active = well fitted cell-killing curve with a large enough effect in the repeat runs; inconclusive = weak or mixed curves; inactive = flat fitted curve, though single readings scatter.
RESULT TYPE: viability change, negative = cytotoxic

Solved entries:
[[record]]
compound = "CCNCCO"
test_result = "inactive"

[[record]]
compound = "NC(Cc1ccc(F)cc1)C(=O)O (stereo not given)"
test_result = "0.439% [at 8.39 µM] (inactive)"

[[record]]
compound = "Cc1cccc(C)c1NC(=O)CN1CCCCCC1"
test_result = "inactive"

[[record]]
compound = "C=Cc1ccccc1"
test_result = "inactive"

[[record]]
compound = "CCN(CC)CC1CCCCN1CC(=O)N1c2ccccc2C(=O)Nc2cccnc21 (stereo not given)"
test_result = "inactive"

[[record]]
compound = "Cn1cnc2c(F)c(Nc3ccc(Br)cc3Cl)c(C(=O)NOCCO)cc21"
test_result = "inactive"


Dear colleague, I am looking for the recorded viability change, negative = cytotoxic of the following compound: COC(=O)C(C)O (stereo not given)
inactive

Dear colleague, I am looking for the recorded viability change, negative = cytotoxic of the following compound: COC(=O)c1ccc(OC)cc1
inactive
